Values from PubChem BioAssay (NCATS)

- System: CP305
- Assay Name: qHTS profiling for inhibitors of Plasmodium falciparum proliferation (AID 504749); note: nearly all actives have a fitted effect of over 60% in size
- Test Conditions: P. falciparum in erythrocytes, SYBR Green DNA, 72 h; series mostly up to 28.7 µM
Results filed as inconclusive are left out. Activity calls are given as the source filed them. Calls come from the whole dose curve; as a rule, active = well fitted inhibition curve with a large enough effect; inconclusive = small, poorly fitted or top-dose-only effect; inactive = flat fitted curve, though single readings scatter.
A correct response names exactly one class from 1 (yes) for active, 0 (no) for inactive

Incoming: Given "CC[C@@]1(O)C[C@H](O[C@H]2C[C@@H](N(C)C)[C@@H](O[C@H]3C[C@@H](O)[C@@H](O[C@H]4CCC(=O)[C@@H](C)O4)[C@@H](C)O3)[C@@H](C)O2)c2c(cc3c(c2O)C(=O)c2c(O)cccc2C3=O)[C@H]1C(=O)OC" , state the outcome it received in this test.
Outgoing: 1 (yes)

Incoming: Query: recorded result category for "CC[C@H](C)[C@H]1O[C@]2(CC[C@@H]1C)C[C@@H]1C[C@@H](C/C=C(\C)[C@H](O[C@@H]3C[C@H](OC)[C@H](O[C@@H]4C[C@H](OC)[C@@H](O)[C@H](C)O4)[C@H](C)O3)[C@@H](C)/C=C/C=C3\CO[C@@H]4[C@H](O)C(C)=C[C@@H](C(=O)O1)[C@]34O)O2" in this test
Outgoing: 1 (yes)

Incoming: Each compound tested received a call. Report the one for CC(=O)N[C@H]1[C@H](O[C@@H]2c3ccc(c(Cl)c3)Oc3cc4cc(c3O[C@@H]3O[C@H](CO)[C@@H](O)[C@H](O)C3C)Oc3ccc(cc3Cl)C[C@H]3NC(=O)[C@@H](N)c5ccc(O)c(c5)Oc5cc(O)cc(c5)[C@H](NC3=O)C(=O)N[C@H]4C(=O)N[C@H]3C(=O)N[C@@H]2C(=O)N[C@@H](C(=O)O)c2cc(O)cc(O[C@H]4O[C@H](CO)[C@@H](O)C(O)[C@@H]4O)c2-c2cc3ccc2O)O[C@H](CO)[C@@H](O)[C@@H]1O (some centres undefined) .
Outgoing: 0 (no)

Incoming: What classification did "C/C(=C(/CCO)SS/C(CCO)=C(\C)N(C=O)Cc1cnc(C)nc1N)N(C=O)Cc1cnc(C)nc1N" end up with in this test?
Outgoing: 0 (no)

====

- Assay Name: NFAT Signaling Pathway (AID 444);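 note: carbachol stimulus at about its EC50 of 1 µM final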
- Test Conditions: Jurkat NFAT-bla M1, carbachol, beta-lactamase ratio, 5 h; at 17.2 µM (top of the series) unless noted
Results filed as inconclusive are left out. Active and inactive are the calls of the source. The call rests on the fitted dose curve; in most records, active means well fitted curve in either direction with a large enough effect (not every such curve was filed as active); inconclusive means small, poorly fitted or top-dose-only effect, or another doubt; inactive means flat fitted curve, though single readings scatter.
API: response.call in label 1 = active, label 0 = inactive

Incoming: Could you kindly confirm the outcome this assay logged for CCCOc1ccc(/C(O)=C2/C(=O)C(=O)N(CCN3CCOCC3)C2c2ccccc2)cc1 (configuration not stated) ?
Outgoing: label 0

Incoming: Please state the recorded outcome for this compound: "Cn1c(=O)[nH]c(=O)c2c1nc(Br)n2CCSc1nnnn1-c1ccccc1"
Outgoing: label 0

Incoming: Identify the outcome logged in this assay for the compound shown: "CC1(C)Cc2c(C#N)c(NCCc3ccccc3)nc(-c3ccco3)c2CO1"
Outgoing: label 1

Incoming: Check the results log: what was the call for "O=C(NCc1ccccn1)c1ccc(=O)oc1" ?
Outgoing: label 0

Incoming: What classification did "C=CCN(C)CCCNC(=O)/C=N/O" end up with in this test?
Outgoing: label 0

Incoming: What outcome does the record of this test show for "Clc1ccccc1-c1nnc2sc(-c3ccco3)nn12" ?
Outgoing: label 0

Incoming: Recorded call for "O=c1oc2cc(O)ccc2c2oc3cc(O)ccc3c12" ?
Outgoing: label 0

Incoming: Can you look up the reported call for "CCOC(=O)c1c(C)n(C)c2ccc(OC)c(NC(=O)CN3CCCCC3)c12" for me?
Outgoing: label 0

Incoming: Dear colleague, could you share the recorded outcome for "Cc1cc(C(F)(F)F)c(C#N)c(SCC(=O)NC2CC2)n1" when you have a moment?
Outgoing: label 0

Incoming: What did this assay record as the result for CC1CN(c2oc(-c3ccccc3Cl)nc2C#N)CC(C)O1 (configuration not stated) ?
Outgoing: label 0

Incoming: Hi, sorry to bother you, what did the test record for "Cc1cc(C)n(-c2nnc(C)n2/N=C/c2ccco2)n1" ?
Outgoing: label 0

Incoming: # lookup: test call for "C=CCNc1nc(-c2ccc(O)c(C(N)=O)c2)cs1"
Outgoing: label 0

====

- Assay Name: Cell Viability - Mesenchymal (AID 546);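 note: cells exposed to compound for 40 hours before reading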; note: potency is the fitted concentration of half-maximal effect
- Test Conditions: mesenchymal cells viability, qHTS
Records with an inconclusive call do not appear. Calls of active or inactive are those of the source. The call rests on the fitted dose curve; in most records, active means well fitted cell-killing curve with a large enough effect; inconclusive means small, poorly fitted or top-dose-only effect; inactive means flat fitted curve, though single readings scatter.
Value Type: Potency

Reference set (5 entries):
>>> df
                                   compound  value_type            result
0                             Cc1cccc(O)c1C     Potency          inactive
1  O=C(/C=C/c1ccc(O)c(O)c1)OC1C[C@](O)(C(=O)O)C[C@@H](O)[C@H]1O (stereo partly specified)     Potency          inactive
2  CC/C(=C(\c1ccccc1)c1ccc(OCCN(C)C)cc1)c1ccc(O)cc1     Potency  31.6 µM (active)
3      c1ccc2c(c1)ccc1cc3c(ccc4ccccc43)cc12     Potency          inactive
4  CN1[C@H]2CC(OC(=O)[C@H](CO)c3ccccc3)C[C@H]1[C@H]1O[C@H]12 (stereo partly specified)     Potency          inactive

Incoming: What Potency value was documented for this compound, "CCCCCCCC[N+](CCCCCCCC)(CCCCCCCC)CCCCCCCC" ?
Outgoing: 10 µM (active)

====

- Measured On: Glucocorticoid receptor (Homo sapiens)
- Assay Name: GR-EFC Redistribution (AID 451); note: potency is the fitted concentration of half-maximal effect
- Test Conditions: CHO-K1 GR-EFC translocation, beta-gal luminescence, 2 h
Activity calls are given as the source filed them. The call rests on the fitted dose curve.
Value Type: Potency

Incoming: Please report the recorded Potency for "COCCNc1nc(-c2ccc(N(C)C)cc2)nc2ccccc12" .
Outgoing: > 46 µM (inactive)

Incoming: Using the record for "O=C(O)c1cc(Cl)cc(Cc2cc(Cl)cc(C(=O)O)c2O)c1O" , report its Potency.
Outgoing: > 9.22 µM (inactive)

Incoming: Fill blank: measured Potency of the compound "COc1ccccc1-c1oc2ccccc2c(=O)c1OC" is ____.
Outgoing: > 46 µM (inactive)

Incoming: Can you look up the measured Potency of "CC(C)=CCC/C(C)=C/COc1c2ccoc2cc2oc(=O)ccc12" for me?
Outgoing: > 46 µM (inactive)

Incoming: Look up Potency: "NCCC[C@@H](CC(=O)N[C@@H]1CCCC[C@H]1C(=O)N[C@H](CC(=O)N[C@@H](CCC(=O)O)CC(=O)O)Cc1ccccc1)NC(=O)C[C@H](Cc1c[nH]c2ccccc12)NC(=O)[C@@H]1CCCC[C@H]1N"
Outgoing: > 46 µM (inactive)

Incoming: Recorded Potency of "CC(C)C[C@@H](CC(=O)N[C@H](CC(=O)N[C@@H]1CCCC[C@H]1C(=O)N[C@H](CC(=O)N[C@@H](CCC(=O)O)CC(=O)O)CC(C)C)C(C)C)NC(=O)[C@@H]1CCCC[C@H]1N" , please.
Outgoing: > 46 µM (inactive)

Incoming: I am curious: what Potency value has been reported for "OCc1ccncc1.OCc1ccncc1.[Cl][Pt]([Cl])([Cl])[Cl]" ?
Outgoing: > 9.22 µM (inactive)

Incoming: Any idea what its Potency is? The compound is "CCCN(CCc1ccccc1)[C@H]1CCc2c(O)cccc2C1"
Outgoing: > 46 µM (inactive)

====

- Measured On: 3',5'-cyclic-AMP phosphodiesterase 4B (Homo sapiens)
- Assay Name: qHTS Assay for Inhibitors of PDE-IV (AID 607); note: % of control where 0% means no effect
- Test Conditions: HEK293 ACTOne CNG channel cells, membrane potential fluorescence; series mostly up to 22.9 µM
Inconclusive results are not listed. Active and inactive are the calls of the source. Calls come from the whole dose curve; as a rule, active = well fitted activation curve with a large enough effect in the main read-out, with a control signal flat (not every such curve was filed as active); inconclusive = small, poorly fitted or top-dose-only effect, or effect the other way, or a change in a side signal; inactive = flat fitted curve, though single readings scatter.

Cpd Smiles	outcome
C=C(CO)[C@H]1Cc2c(ccc3c2O[C@H]2COc4cc(OC)c(OC)cc4[C@@H]2C3=O)O1	inactive
COc1ccc2c(c1)CN([C@H](C)[C@@H]1CC[C@@H]3[C@H]4CC[C@H]5C[C@@H](O)CC[C@@]5(C)[C@H]4CC[C@]31C)CO2	inactive
CC(C)C[C@@H](CC(=O)N[C@@H](CCCN)CC(=O)N[C@@H]1CCCC[C@H]1C(=O)N[C@H](CC(=O)N[C@@H](CCC(=O)O)CC(=O)O)Cc1c[nH]c2ccccc12)NC(=O)[C@@H]1CNCC[C@H]1N	inactive

====

- Tested on: Dd2
- Assay Name: qHTS profiling for inhibitors of Plasmodium falciparum proliferation (AID 504749); note: nearly all actives have a fitted effect of over 60% in size; note: potency is the fitted concentration of half-maximal effect
- Test Conditions: P. falciparum in erythrocytes, SYBR Green DNA, 72 h; series mostly up to 28.7 µM
Inconclusive results are not listed. Active and inactive are the calls of the source. Calls come from the whole dose curve; as a rule, active = well fitted inhibition curve with a large enough effect; inconclusive = small, poorly fitted or top-dose-only effect; inactive = flat fitted curve, though single readings scatter.
Value Type: Potency

Worked cases, Potency given:
Compound	Result
C=CCn1c(=O)n(C2OC(CO)C(O)C2O)c2nc(N)[nH]c(=O)c21 (stereo unspecified)	inactive
OCCN1CC(O)C(O)C(O)C1CO (stereo unspecified)	inactive
C=C1CC[C@H](O)C/C1=C/C=C1\CCC[C@]2(C)[C@@H]([C@H](C)CCCC(C)(C)O)CC[C@@H]12	12600 nM (active)
CCCCCCCCCCCCCCCC(=O)OCC(COP(=O)(O)OCC[N+](C)(C)C)OC(=O)CCCCCCCCCCCCCCC (stereo unspecified)	inactive

Consider the record given below.
Incoming: Form field: reported Potency of N#C/C(=C1/SCC(c2ccccc2Cl)S1)n1ccnc1 (stereo unspecified)
Outgoing: inactive
